target: HLA-DR7 (α1*01:01;β1*07:01) (Homo sapiens, UniProt P01903+P01911, A100R/A102G/A103Q/D57E/D86V/E43K/F76Y/K127E/L162R/M171V/P40G/Q125H/Q99D/R195Q/R33Q/R42Y/R54Q/S133A/S149N/S66F/T210M/V115G/Y107V/Y59L/Y89S); construct: purchased ProImmune; test: ProImmune REVEAL MHC class II binding assay of long peptides; conditions: percentage of the signal of the positive control peptide; positive binding score >=15%
Measurement name: binding score, HLA-DR7 (α1*01:01;β1*07:01) (%)
Only the number, expressed in %, is required.

Query: Form field: reported binding score, HLA-DR7 (α1*01:01;β1*07:01) of NP856(K): unconjugated HBV long peptide, core 839-873 + KKK (LTFGRETVLEYLVSFGVWIRTPPAYRPPNAPILSTKKK; HBV CONSENSUS SEQUENCE)
Reply: 0.40

Query: Form field: reported binding score, HLA-DR7 (α1*01:01;β1*07:01) of NP277(K): unconjugated HBV long peptide, polymerase 260-293 + KKK (RVSWPKFAVPNLQSLTNLLSSNLSWLSLDVSAAFYHKKK; HBV CONSENSUS SEQUENCE)
Reply: 0.01

Query: Form field: reported binding score, HLA-DR7 (α1*01:01;β1*07:01) of NP753(K): unconjugated HBV long peptide, core KK + 738-770 (S to T at 743) + KKK (KKKEFGATVELLSFLPSDFFPSVRDLLDTASALYRKKK; HBV CONSENSUS SEQUENCE)
Reply: 0.00

Query: Form field: reported binding score, HLA-DR7 (α1*01:01;β1*07:01) of NP113: unconjugated HBV long peptide, polymerase region 96-130 of virtual HBV proteome (VGPLTVNEKRRLKLIMPARFYPNVTKYLPLDKGIK; HBV CONSENSUS SEQUENCE)
Reply: 99.17

Query: Form field: reported binding score, HLA-DR7 (α1*01:01;β1*07:01) of NP151: unconjugated HBV long peptide, polymerase region 134-168 (PEHVVNHYFQTRHYLHTLWKAGILYKRETTRSASF; HBV CONSENSUS SEQUENCE)
Reply: 19.41

* * *

target: HLA-DR15 (α1*01:01;β1*15:01) (Homo sapiens, UniProt P01903+P01911); construct: purchased ProImmune; test: ProImmune REVEAL MHC class II binding assay of long peptides; details: percentage of the signal of the positive control peptide; positive binding score >=15%
Under this convention, Condition met denotes binding score, HLA-DR15 (α1*01:01;β1*15:01) strictly below 6% and Condition not met denotes binding score, HLA-DR15 (α1*01:01;β1*15:01) at or above 6%.

Query: # check: binding score, HLA-DR15 (α1*01:01;β1*15:01) < 6% for NP151: unconjugated HBV long peptide, polymerase region 134-168 (PEHVVNHYFQTRHYLHTLWKAGILYKRETTRSASF; HBV CONSENSUS SEQUENCE)
Reply: Condition not met

Query: # check: binding score, HLA-DR15 (α1*01:01;β1*15:01) < 6% for NP277(K): unconjugated HBV long peptide, polymerase 260-293 + KKK (RVSWPKFAVPNLQSLTNLLSSNLSWLSLDVSAAFYHKKK; HBV CONSENSUS SEQUENCE)
Reply: Condition met

Query: # check: binding score, HLA-DR15 (α1*01:01;β1*15:01) < 6% for NP376: unconjugated HBV long peptide, polymerase 359-398 (C to S substitution at 393) (KLHLYSHPIILGFRKIPMGVGLSPFLLAQFTSAISSVVRR; HBV CONSENSUS SEQUENCE)
Reply: Condition not met

Query: # check: binding score, HLA-DR15 (α1*01:01;β1*15:01) < 6% for NP856(K): unconjugated HBV long peptide, core 839-873 + KKK (LTFGRETVLEYLVSFGVWIRTPPAYRPPNAPILSTKKK; HBV CONSENSUS SEQUENCE)
Reply: Condition met

Query: # check: binding score, HLA-DR15 (α1*01:01;β1*15:01) < 6% for NP113: unconjugated HBV long peptide, polymerase region 96-130 of virtual HBV proteome (VGPLTVNEKRRLKLIMPARFYPNVTKYLPLDKGIK; HBV CONSENSUS SEQUENCE)
Reply: Condition not met

Query: # check: binding score, HLA-DR15 (α1*01:01;β1*15:01) < 6% for NP753(K): unconjugated HBV long peptide, core KK + 738-770 (S to T at 743) + KKK (KKKEFGATVELLSFLPSDFFPSVRDLLDTASALYRKKK; HBV CONSENSUS SEQUENCE)
Reply: Condition met

* * *

molecular target: HLA-A*0201 (Homo sapiens, UniProt P04439, D140Y/D185E/D98H/E176V/E277Q/G131W/G231S/I119V/I121R/I166T/I218V/L300P/L318F/N151K/N90K/P208A/P217A/Q86G/Q94H/R138H/R169H/T345S); experiment: ProImmune REVEAL MHC class I binding assay of nonamers; settings: score as % of positive control peptide
Measurement name: Number of nonamers having a binding score >= 45%, HLA-A*0201
Simply state the number, no unit and no words.

Query: Form field: reported Number of nonamers having a binding score >= 45%, HLA-A*0201 of NP113: unconjugated HBV long peptide, polymerase region 96-130 of virtual HBV proteome (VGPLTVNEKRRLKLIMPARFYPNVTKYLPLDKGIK; HBV CONSENSUS SEQUENCE)
Reply: 2

Query: Form field: reported Number of nonamers having a binding score >= 45%, HLA-A*0201 of NP376: unconjugated HBV long peptide, polymerase 359-398 (C to S substitution at 393) (KLHLYSHPIILGFRKIPMGVGLSPFLLAQFTSAISSVVRR; HBV CONSENSUS SEQUENCE)
Reply: 8

Query: Form field: reported Number of nonamers having a binding score >= 45%, HLA-A*0201 of NP151: unconjugated HBV long peptide, polymerase region 134-168 (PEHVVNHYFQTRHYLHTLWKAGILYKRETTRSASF; HBV CONSENSUS SEQUENCE)
Reply: 3

* * *

target: HLA-A*2402 (Homo sapiens, UniProt P04439, D101N/D140Y/D185E/E176V/E190D/F33S/G103R/G107R/I119L/I121M/I306V/K335N/L105A/L180Q/L300P/N151K/N90K/Q86E/Q94H/R106L/R138H/R89G/T104I/T345S/V100E/W191G/Y123F); assay: ProImmune REVEAL MHC class I binding assay of nonamers; settings: score as % of positive control peptide
Could you please report measured Number of nonamers having a binding score >= 45%, HLA-A*2402 for the items listed next?

Query: Form field: reported Number of nonamers having a binding score >= 45%, HLA-A*2402 of NP151: unconjugated HBV long peptide, polymerase region 134-168 (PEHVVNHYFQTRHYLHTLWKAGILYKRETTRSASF; HBV CONSENSUS SEQUENCE)
Reply: 4

Query: Form field: reported Number of nonamers having a binding score >= 45%, HLA-A*2402 of NP277(K): unconjugated HBV long peptide, polymerase 260-293 + KKK (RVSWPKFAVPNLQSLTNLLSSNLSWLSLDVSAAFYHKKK; HBV CONSENSUS SEQUENCE)
Reply: 5

Query: Form field: reported Number of nonamers having a binding score >= 45%, HLA-A*2402 of NP856(K): unconjugated HBV long peptide, core 839-873 + KKK (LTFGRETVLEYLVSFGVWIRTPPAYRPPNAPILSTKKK; HBV CONSENSUS SEQUENCE)
Reply: 4

* * *

Could you please report measured Number of nonamers having a binding score >= 45%, HLA-B*0801 for the items listed next?
target: HLA-B*0801 (Homo sapiens, UniProt P01889, A93T/A95T/D138N/E176V/E187T/K202T/Q94N/R180D/S35A/V36M/Y33D/Y91F); test: ProImmune REVEAL MHC class I binding assay of nonamers; settings: score as % of positive control peptide

Query: Form field: reported Number of nonamers having a binding score >= 45%, HLA-B*0801 of NP856(K): unconjugated HBV long peptide, core 839-873 + KKK (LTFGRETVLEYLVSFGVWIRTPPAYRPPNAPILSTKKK; HBV CONSENSUS SEQUENCE)
Reply: 1

Query: Form field: reported Number of nonamers having a binding score >= 45%, HLA-B*0801 of NP151: unconjugated HBV long peptide, polymerase region 134-168 (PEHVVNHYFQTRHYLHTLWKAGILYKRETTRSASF; HBV CONSENSUS SEQUENCE)
Reply: 4

Query: Form field: reported Number of nonamers having a binding score >= 45%, HLA-B*0801 of NP277(K): unconjugated HBV long peptide, polymerase 260-293 + KKK (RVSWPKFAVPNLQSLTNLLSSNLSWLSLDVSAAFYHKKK; HBV CONSENSUS SEQUENCE)
Reply: 1

Query: Form field: reported Number of nonamers having a binding score >= 45%, HLA-B*0801 of NP753(K): unconjugated HBV long peptide, core KK + 738-770 (S to T at 743) + KKK (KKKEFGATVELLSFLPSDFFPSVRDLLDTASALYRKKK; HBV CONSENSUS SEQUENCE)
Reply: 1

Query: Form field: reported Number of nonamers having a binding score >= 45%, HLA-B*0801 of NP113: unconjugated HBV long peptide, polymerase region 96-130 of virtual HBV proteome (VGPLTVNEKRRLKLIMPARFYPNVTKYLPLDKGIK; HBV CONSENSUS SEQUENCE)
Reply: 3

Query: Form field: reported Number of nonamers having a binding score >= 45%, HLA-B*0801 of NP376: unconjugated HBV long peptide, polymerase 359-398 (C to S substitution at 393) (KLHLYSHPIILGFRKIPMGVGLSPFLLAQFTSAISSVVRR; HBV CONSENSUS SEQUENCE)
Reply: 6

// provenance: patent US11918645B2
